Test system: TK-10 renal
Assay: NCI-60 one-dose screen, 48 h (100 = growth as untreated, 0 = no growth, -100 = all killed)
Conditions: 10 µM unless noted
Compounds without any hit were thinned out: in the full panel of roughly 83,000, 20% have a hit.
Field: growth. Provide a value for each of the compounds that follow.
Please reply with the bare figure in % and do not write the unit itself.

Request: Output growth of C=C(CNCCc1ccc(O)cc1)[C@@H]1CC[C@]2(CO)CC[C@]3(C)[C@H](CC[C@@H]4[C@@]5(C)CCC(NCCc6ccc(O)cc6)C(C)(C)[C@@H]5CC[C@]43C)[C@@H]12 (stereo partly drawn)
Result: -92.6

Request: Output growth of O=C1OCC2=C1C(c1cccc(C(F)(F)F)c1)c1cc3c(cc1N2CCO)CCC3 (stereo not drawn)
Result: 53.9

Request: Output growth of Cn1cc(-c2nonc2-c2cn(C)c3ccc(Br)cc23)c2ccccc21
Result: 60.7

Request: Output growth of O=c1cc(N/N=C/c2ccc(F)cc2)c2cc(Cl)ccc2[nH]1
Result: 91.5

Request: Output growth of Clc1ccc(Nc2nc(Nc3ccc(Cl)cc3)nc(Nc3ccc(-c4cc(-c5cccc(Cl)c5)on4)cc3)n2)cc1
Result: 155

Request: Output growth of COc1cc(-c2nc3occn3c2-c2ccnc(NCCCNS(=O)(=O)c3ccc(O)cc3)n2)ccc1F
Result: 133

Request: Output growth of C[C@]12CCc3c(ccc4cc(O)ccc34)[C@@H]1C[C@H](O)[C@@H]2O
Result: 110

Request: Output growth of COc1cc2ncnc(Nc3ccc(F)c(Cl)c3)c2cc1OCC(=O)N1CCCCC1
Result: 23.9

Request: Output growth of C=C(C)[C@@H]1CC[C@]2(C(=O)O)CC[C@]3(C)[C@H](CC[C@@H]4[C@@]5(C)CCC(N)C(C)(C)[C@@H]5CC[C@]43C)[C@@H]12 (stereo partly drawn)
Result: 47.8

Request: Output growth of COc1cc(/C=C/C(=O)c2ccc(NC(=O)CSc3nnc(-c4cc(-c5ccccc5)nc5ccccc45)n3-c3ccccc3)cc2)cc(OC)c1OC
Result: 109

Request: Output growth of O=C1C(Nc2ccc(Cl)cc2)=C(I)C(=O)c2ncccc21
Result: 47.5

Request: Output growth of CCOC(=O)c1cnn(-c2ccc(S(N)(=O)=O)cc2)c1N
Result: 99.6

Request: Output growth of COc1ccc2c(O)c(/C=C3\N=Nc4nc(C)ccc43)oc2c1CC1CCNCC1
Result: 79.1

Request: Output growth of COc1ccc(/C(C)=C(\c2ccc(OCCN3CCOCC3)cc2)c2ccc(OC(=O)C3CCCCC3)cc2)cc1
Result: 104

Request: Output growth of CCNC(=O)Oc1ccc(/C(=C(/C)Cc2ccc(OC)cc2)c2ccc(OCCN(CC)CC)cc2)cc1
Result: 65.9

Request: Output growth of CCN1C(=S)N(CC)C2C1NC(=S)N2/N=C/C=C/c1ccccc1 (stereo not drawn)
Result: 69.2

Request: Output growth of CCCn1nc(C(=O)N2CCCCC2)c2c1CCC(N1CCC(c3ccncc3)CC1)C2 (stereo not drawn)
Result: 101

Request: Output growth of O=[N+]([O-])c1cc(C(F)(F)F)ccc1Sc1ccc(C(F)(F)F)cc1[N+](=O)[O-]
Result: 98.7

====

System: HT29 colon
Test: NCI-60 one-dose screen, 48 h (100 = growth as untreated, 0 = no growth, -100 = all killed)
Details: 10 µM unless noted
About 83,000 compounds went through this panel and 20% of them were active in at least one assay; those are over-represented in the sample as a whole. Calls of active or inactive are those of the source. The calls were made as follows: active = growth percent below 10; inactive = the rest.
Field: growth. Provide a value for each of the compounds that follow.

Request: Output growth of CC(Sc1ccccc1)C(=O)O (centres undefined)
Result: 99.3% (inactive)

Request: Output growth of CCN1CCN(C(=O)[C@]23CC[C@@H](C)[C@H](C)[C@@H]2C2=CC[C@@H]4[C@@]5(C)CCC(=O)C(C)(C)[C@@H]5CC[C@@]4(C)[C@]2(C)CC3)CC1
Result: -12% (active)

Request: Output growth of Cc1c(CC(=O)OCCO)cc(-c2ccc(Cl)cc2)n1-c1ccccc1
Result: 101% (inactive)

Request: Output growth of COc1ccc2c(c1)CC[C@@H]1[C@@H]2CC[C@]2(C)C3C(=CCC4C(=O)N(c5ccccc5)C(=O)C43)C[C@@H]12 (some centres undefined)
Result: 71.3% (inactive)

Request: Output growth of CCN1C(=S)N(CC)C2C1NC(=S)N2/N=C/C=C/c1ccccc1 (centres undefined)
Result: 5.26% (active)

Request: Output growth of COC1=CC(c2ccc[nH]2)=N/C1=C\c1[nH]c(C)c(C(=O)Oc2ccccc2)c1C
Result: -15.7% (active)

Request: Output growth of O=C(N/N=C/c1ccc(O)cc1O)c1cccc(Nc2ccnc(C(F)(F)F)c2)c1
Result: 41.6% (inactive)

Request: Output growth of Oc1ccccc1C=Nc1ccc(N2CCN(c3ccccc3)CC2)cc1
Result: 99.5% (inactive)

Request: Output growth of O=C1C(c2c[nH]c3ccccc23)=C(c2coc3cc(Br)ccc23)C(=O)N1O
Result: 103% (inactive)

Request: Output growth of COc1ccc(-c2ccccc2)cc1-c1c(Nc2cc(Cl)cc(Cl)c2O)c(=O)c1=O
Result: 44.6% (inactive)

Request: Output growth of CC[C@@H]1NC(=O)[C@H]([C@H](O)[C@H](C)C/C=C/c2ccc(CN3C(=O)C(C)=C(C)C3=O)cc2)N(C)C(=O)[C@H](C(C)C)N(C)C(=O)[C@H](CC(C)C)N(C)C(=O)[C@H](CC(C)C)N(C)C(=O)[C@@H](C)NC(=O)[C@H](C)NC(=O)[C@H](CC(C)C)N(C)C(=O)[C@H](C(C)C)NC(=O)[C@H](CC(C)C)N(C)C(=O)CN(C)C1=O
Result: 64.9% (inactive)

Request: Output growth of C=C1C(=O)O[C@H]2[C@H]1CC/C(CNS(=O)(=O)c1ccc3ccccc3c1)=C\CC[C@@]1(C)O[C@@H]21
Result: -78.2% (active)

Request: Output growth of COC1=CC(=O)C(OC)=C(O)C1=O
Result: 106% (inactive)

Request: Output growth of C=C(CNCCc1ccc(O)cc1)[C@@H]1CC[C@]2(CO)CC[C@]3(C)[C@H](CC[C@@H]4[C@@]5(C)CCC(NCCc6ccc(O)cc6)C(C)(C)[C@@H]5CC[C@]43C)[C@@H]12 (some centres undefined)
Result: -87.7% (active)

Request: Output growth of O=C([C@H]1C[C@H]1c1ccc(S(F)(F)(F)(F)F)cc1)N1CCN(c2cc(Cl)ccc2C(F)(F)F)CC1
Result: 67.5% (inactive)

Request: Output growth of O=C1c2cc3c(cc2-c2c1c1ccc(Cl)cc1c(=O)n2CCCn1ccnc1)OCO3
Result: -62.9% (active)

Request: Output growth of COc1ccc(/C=N\Nc2nc(SCC(C)C)nc(-c3ccc(OC)cc3)c2C#N)cc1
Result: 56.4% (inactive)

Request: Output growth of COc1ccc(/C=N/C2=C(C#N)C(c3ccccc3)c3c(ccc4ccccc34)O2)cc1 (centres undefined)
Result: 5.31% (active)

Request: Output growth of CC(=O)N1N=C(c2ccc(F)cc2)CC1c1sc(N(C)Cc2ccccc2)nc1Cl (centres undefined)
Result: 94.4% (inactive)

Request: Output growth of C=C(C)[C@@H]1CC[C@]2(C(=O)O)CC[C@]3(C)[C@H](CC[C@@H]4[C@@]5(C)CCC(N)C(C)(C)[C@@H]5CC[C@]43C)[C@@H]12 (some centres undefined)
Result: -13.6% (active)

Request: Output growth of COC(=O)c1nc(-c2ccc(C)cc2)oc1Sc1ccc(C)cc1
Result: 102% (inactive)

Request: Output growth of CC(C)=CCc1cc(O)c(O)c2oc3cc(O)cc(O)c3c(=O)c12
Result: 91.7% (inactive)

Request: Output growth of C=C(CNCCO)[C@@H]1CC[C@]2(CO)CC[C@]3(C)[C@H](CC[C@@H]4[C@@]5(C)CCC(NCCc6ccc(O)cc6)C(C)(C)[C@@H]5CC[C@]43C)[C@@H]12 (some centres undefined)
Result: -68.7% (active)

Request: Output growth of CN(Cc1ccccc1)c1nc(Cl)c(C2CC(c3ccc(F)cc3)=NN2C=O)s1 (centres undefined)
Result: 95.4% (inactive)

Request: Output growth of CCCCCCCCCCCCCCCC(=O)O[C@@H]1[C@@H](O)[C@@H](O)C([C@H](NC(=O)[C@@H]2C[C@@H](CCC)CN2C)[C@H](C)Cl)O[C@@H]1SC (some centres undefined)
Result: 111% (inactive)

Request: Output growth of COc1ccc(Oc2nc(Nc3ccc(N4CCOCC4)cc3)ncc2NC(=O)c2cccc(C(F)(F)F)c2)cc1
Result: 42.2% (inactive)

Request: Output growth of CC/C(=C(/c1ccc(Cl)cc1)c1ccc(OCCN2CCOCC2)cc1)c1ccccc1
Result: 75.6% (inactive)

Request: Output growth of CC1=CC=C(NC(=O)/C=C/c2ccccc2)CC1Nc1nccc(-c2cccnc2)n1 (centres undefined)
Result: 13.6% (inactive)

Request: Output growth of O=C(/C=C/c1cccs1)Nc1ncc(Cc2ccc(Cl)c(Cl)c2)s1
Result: 24.2% (inactive)

Request: Output growth of COc1ccc(Nc2nn3c(SCC(=O)c4ccc(C)cc4)nnc3s2)cc1
Result: 105% (inactive)

Request: Output growth of CC(=NCc1ccccc1)c1ccc(O)cc1O
Result: 104% (inactive)

Request: Output growth of O=S(=O)(O)c1ccc(N=Nc2ccc(N=Nc3cccc4ccccc34)c(S(=O)(=O)O)c2)cc1
Result: 105% (inactive)

Request: Output growth of O=C(N=Nc1c(O)[nH]c2ccccc12)Nc1ccccc1Cl
Result: 101% (inactive)

Request: Output growth of COc1cc(/C=C2\C(=O)N(CCCCn3c4ccccc4c(=O)c4ccccc43)c3ccccc32)cc(OC)c1O
Result: 41.6% (inactive)

Data credit: PubChem BioAssay (NCI)
